- Tested on: ATP;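 note: ATP exposure 15 min at 22 °C before imaging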
- experimentalDetails: switch fluorescence ratio, 500 uM ATP over buffer (Cy3 cluster intensity, sum of 5 cycles each) (fold (ratio)); higher = stronger signal-on switching upon ATP binding; sequences stand for … in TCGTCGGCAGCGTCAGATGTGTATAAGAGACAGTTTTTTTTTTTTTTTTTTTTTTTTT…TC
- conditionDetails: aptamer strand: ATP DNA aptamer (quencher-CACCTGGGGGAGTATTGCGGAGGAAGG + anchor), 100 nM annealed; ATP concentration: 500 uM
Please enter class 1 where switch fluorescence ratio is greater than or equal to 1, and class 0 where it is lower.

Known results for sequences:
sequencetext=ACAAGGGAGC systemtested=ATP qualitativelabel="class 0"
sequencetext=CGTTTGGTAG systemtested=ATP qualitativelabel="class 0"

Does the reported switch fluorescence ratio for GCGTCGCTTT fall at or above the 1 mark?
class 0

Does the reported switch fluorescence ratio for TAGCACTATC fall at or above the 1 mark?
class 1

Does the reported switch fluorescence ratio for TTTCAAGTAC fall at or above the 1 mark?
class 1
